Source of measurements: paper PMC11999743

Experiment: Pharmacokinetic study in naive mice after intraperitoneal injection
Settings: male, Swiss, mouse, in vivo, ip, 3 mg/kg
Measured Property: Cmax

Task item: // returns reported Cmax for input C[N+]1(C)[C@@H]2C[C@@H](OC(=O)C(O)(c3cccs3)c3cccs3)C[C@H]1[C@@H]1O[C@@H]12 [Tiotropium, Tiotropium bromide monohydrate]
Reply: 705 ng/mL

---

Assay: Pharmacokinetic study in naive mice after intraperitoneal injection
Conditions: male, Swiss, mouse, in vivo, ip, 3 mg/kg, T max, naive mice, plasma
Measured Property: Tmax (min)
Kindly provide the numeric value in min only, without the unit symbol.

Task item: Fill in the blank: the reported Tmax of C[N+]1(C)[C@@H]2C[C@@H](OC(=O)C(O)(c3cccs3)c3cccs3)C[C@H]1[C@@H]1O[C@@H]12 [Tiotropium, Tiotropium bromide monohydrate] is ____.
Reply: 4.9

---

Experiment: Pharmacokinetic study in naive mice after intraperitoneal injection
Conditions: male, Swiss, mouse, in vivo, ip, 3 mg/kg, t 1/2elim, naive mice, plasma
Method: Nine-week-old male Swiss mice (Janvier Labs, Le Genest-Saint-Isle, France), weighing 35–45 g at the time of experimentation, were used. […] Food and tap water were given ad libitum. Their hind legs were depilated after a 1 min application of a commercial depilatory cream and rinsed with water. Subsequently, the mice were returned to their cages to allow for recovery and complete anesthesia washout. […]
Measured Property: half-life

Task item: Any idea what half-life was measured for C[N+]1(C)[C@@H]2C[C@@H](OC(=O)C(O)(c3cccs3)c3cccs3)C[C@H]1[C@@H]1O[C@@H]12 [Tiotropium, Tiotropium bromide monohydrate] ?
Reply: ~7.5 min

---

Test: Pharmacokinetic study in naive mice after intraperitoneal injection
Conditions: male, Swiss, mouse, in vivo, ip, 3 mg/kg
Measured Property: AUC (ng·h/mL)
Dear colleague, please return just the value in ng·h/mL, with no unit written.

Task item: // lookup AUC for C[N+]1(C)[C@@H]2C[C@@H](OC(=O)C(O)(c3cccs3)c3cccs3)C[C@H]1[C@@H]1O[C@@H]12 [Tiotropium, Tiotropium bromide monohydrate]
Reply: 199
